Test system: yellow nutsedge
Experiment: Test C postemergence
Assay type: in vivo, Cyperus esculentus
Details: 31 g ai/ha, postemergence; visual rating, scale 0 to 100 (0 no effect, 100 complete control), 13 to 15 days
The entries below come with measured Nutsedge, Yellow plant response rating values attached.
Answer using only a numeral; do not append any unit.

INSERT INTO results (smiles_record, parameter, measured) VALUES
  ('CCCOc1cnn(-c2c(C#N)cccc2Oc2ncc(Cl)cn2)c1', 'Nutsedge, Yellow plant response rating', 0),
  ('N#Cc1cccc(Oc2ncc(Cl)cn2)c1-n1cc(I)cn1', 'Nutsedge, Yellow plant response rating', 0),
  ('N#Cc1cnn(-c2c(Oc3ncc(Cl)cn3)cccc2C(F)F)c1', 'Nutsedge, Yellow plant response rating', 0);

// fetch Nutsedge, Yellow plant response rating given entry FCc1cn(-c2c(F)cccc2Oc2ncc(Cl)cn2)nn1
10

* * *

Test system: giant foxtail
Experiment: Test A preemergence
Type: in vivo, Setaria faberii
Details: 125 g ai/ha, 0 to 100 scale where 0 is no effect and 100 is complete control
The entries below come with measured Plant response rating, Foxtail, Giant values attached.
Answer using only a numeral; do not append any unit.

Solved cases (3 shown):
INSERT INTO assay_data (compound, measured) VALUES
  ('N#Cc1cccc(Oc2ncc(Cl)cn2)c1-n1cc(OCC(F)F)cn1 [Compound 99]', 100),
  ('FCc1cccc(Oc2ncc(Cl)cn2)c1-n1cc(C(F)(F)F)cn1 [Compound 119]', 100),
  ('O=Cc1cccc(Oc2ncc(F)cn2)c1-n1cc(Cl)cn1 [Compound 93]', 0);

// fetch Plant response rating, Foxtail, Giant given entry Fc1cnc(Oc2cccc(C(F)F)c2-n2cc(Br)cn2)nc1 [Compound 112]
100

// fetch Plant response rating, Foxtail, Giant given entry CC(C)Oc1cnn(-c2c(Br)cccc2Oc2ncc(F)cn2)c1 [Compound 156]
70

// fetch Plant response rating, Foxtail, Giant given entry FC(F)(F)COc1cnn(-c2c(Br)cccc2Oc2ncc(Cl)cn2)c1 [Compound 128]
100

// fetch Plant response rating, Foxtail, Giant given entry O=Cc1cccc(Oc2ncc(Cl)cn2)c1-n1cc(C(F)(F)F)cn1 [Compound 171]
0

// fetch Plant response rating, Foxtail, Giant given entry FC(F)c1cccc(Oc2ncc(I)cn2)c1-n1cc(Br)cn1 [Compound 173]
50

// fetch Plant response rating, Foxtail, Giant given entry N#Cc1cnn(-c2c(C#N)cccc2Oc2ncc(F)cn2)c1 [Compound 111]
100

* * *

System: barnyardgrass
Assay: Test C postemergence
Type: in vivo, Echinochloa crus-galli
Details: Postemergence, 31 g ai/ha; scale 0 to 100 (0 no effect, 100 complete control); 13 to 15 days
The entries below come with measured Plant response rating, Barnyardgrass values attached.

Solved cases (4 shown):
INSERT INTO results (smiles_record, measured) VALUES
  ('CCOc1cnn(-c2c(C#N)cccc2Oc2ncc(F)cn2)c1', 5),
  ('FCc1cccc(Oc2ncc(Cl)cn2)c1-n1cc(Br)cn1', 5),
  ('N#Cc1cccc(Oc2ncc(F)cn2)c1-n1cc(Br)cn1', 0),
  ('CCOc1cnn(-c2c(C#N)cccc2Oc2ncc(Cl)cn2)c1', 5);

// fetch Plant response rating, Barnyardgrass given entry Cc1cnc(Oc2cccc(C#N)c2-n2cc(I)cn2)nc1
0

* * *

The entries below come with measured Poinsettia, Wild plant response rating values attached.
Tested on: wild poinsettia
Assay: Test E preemergence
Type: in vivo, Euphorbia heterophylla
Conditions: 31 g ai/ha, scale 0 to 100 (0 no effect, 100 complete control)
Answer using only a numeral; do not append any unit.

Solved cases (3 shown):
INSERT INTO results (smiles_record, parameter, measured) VALUES
  ('N#Cc1cccc(Oc2ncc(Br)cn2)c1-n1cc(C(F)(F)F)cn1', 'Poinsettia, Wild plant response rating', 0),
  ('FCc1cccc(Oc2ncc(Cl)cn2)c1-n1cc(Cl)cn1', 'Poinsettia, Wild plant response rating', 0),
  ('N#Cc1cccc(Oc2ncc(Br)cn2)c1-n1cc(I)cn1', 'Poinsettia, Wild plant response rating', 0);

Okay, now this molecule:
Please respond with reported Poinsettia, Wild plant response rating (system wild poinsettia) for N#Cc1cnn(-c2c(C#N)cccc2Oc2ncc(F)cn2)c1 .
30
